experiment: p53 small molecule agonists, cell-based qHTS assay (AID 1963582); details: HCT-116 p53RE-bla reporter, beta-lactamase FRET ratio, 16 h; series mostly up to 66 µM
Records with an inconclusive call do not appear. Active and inactive are the calls of the source. Calls follow the shape of the dose curve; as a rule, active = well fitted activation curve with a large enough effect in the signal ratio in the repeat runs (not every such curve was filed as active); inconclusive = weak or mixed curves; inactive = flat fitted curve, though single readings scatter; the % refers to the signal ratio.
Endpoint name: activation

Completed entries (count: 6):
NNc1nc(-c2ccc(N)cc2)cs1; inactive
CCCCCCC(C)OC(=O)COc1nc(F)c(Cl)c(N)c1Cl (configuration not stated); inactive
O=C(Cl)c1ccc(Cl)cc1Cl; inactive
CC(C)NC(=O)c1ccc(C=O)cc1; inactive
CCN(Cc1cccc(S(=O)(=O)O)c1)c1ccc(C(=C2C=CC(=[N+](CC)Cc3cccc(S(=O)(=O)[O-])c3)C=C2)c2ccccc2)cc1; inactive
O=C(c1ccccc1)c1ccccc1; inactive

Input: // lookup activation for CCCCCCCCCCC1CO1 (configuration not stated)
Output: inactive

Input: // lookup activation for "O=C1OC2(c3ccc(O)cc3Oc3cc(O)ccc32)c2ccc(N=C=S)cc21"
Output: inactive

Input: // lookup activation for O=C1NC(=O)C2CC=CCC12 (configuration not stated)
Output: inactive

Input: // lookup activation for CCCCC(CC)CN1CN(CC(CC)CCCC)CC(C)(N)C1 (configuration not stated)
Output: inactive

Input: // lookup activation for "COc1nc(N)nc2c1ncn2[C@@H]1O[C@H](CO)[C@@H](O)[C@@H]1O"
Output: inactive

Input: // lookup activation for "NC(=O)Cn1c(=O)cc(CCN2CCN(c3nccc4sccc34)CC2)c2ccc(F)cc21"
Output: inactive

====

biological target: Beta-2 adrenergic receptor (Homo sapiens); assay: Adrenergic beta2 receptor (ADRB2) small molecule antagonists, cell-based qHTS assay (AID 1963592); conditions: CHO-ADRB2 cells, isoproterenol-stimulated cAMP HTRF ratio, 0.5 h; series mostly up to 92.4 µM; also: nearly all actives have a fitted effect of over 50% in size
Records with an inconclusive call do not appear. Calls of active or inactive are those of the source. Calls follow the shape of the full dose curve.
Endpoint name: outcome

Cc1ccc([N+](=O)[O-])c(N)c1; inactive
C=C1CC[C@H](O)CC1=C/C=C1\CCC[C@]2(C)[C@@H]([C@H](C)/C=C/[C@H](C)C(C)C)CC[C@@H]12; inactive
NCCc1ccn[nH]1; inactive
CC(C)=CCNc1ncnc2c1ncn2[C@@H]1O[C@H](CO)[C@@H](O)[C@H]1O; inactive
C=CC(=O)NC(C)(C)C; inactive

Attention now turns to another entry.
Input: // lookup outcome for "C=Cc1ccc(C(C)(C)C)cc1"
Output: inactive

====

target: Muscarinic acetylcholine receptor M1 (Homo sapiens); experiment: Cholinergic receptor muscarinic 1 (CHRM1) small molecule antagonists, cell-based qHTS assay (AID 1963588); settings: CHRM1-CHO antagonist mode, calcium flux fluorescence; series mostly up to 61.5 µM; also: nearly all actives have a fitted effect of over 40% in size
Inconclusive results are not listed. Activity calls are given as the source filed them. Calls follow the shape of the full dose curve.
I would appreciate it if you answered using one of these outcomes: active, inactive

COc1cccc2sc(N)nc12; inactive
CC(CN=Cc1ccccc1O)N=Cc1ccccc1O (stereo not given); inactive
COC(=O)[C@@H](N)Cc1ccc(O)c(O)c1; inactive
NC(=O)C1(N2CCCCC2)CCN(CCCN2c3ccccc3CCc3ccc(Cl)cc32)CC1; inactive
Oc1ccc(C2(c3ccc(O)c(C4CCCCC4)c3)CCCCC2)cc1C1CCCCC1; inactive

Consider the additional molecule presented here.
Input: What outcome does the record of this test show for "NC(N)=NN=C(/C=C/c1ccc([N+](=O)[O-])o1)/C=C/c1ccc([N+](=O)[O-])o1" ?
Output: inactive
